- targetOfAssay: T1, Soluble IGF-1R (sIGF-1R), R&D Systems Cat. # 391-GR/CF (UniProt P08069 31-935, limits assumed)
- T1 construct: extracellular domain
- method: phage ELISA
Form field: Ratio over Background (one value per entry).
The reply should be a number, written without any unit.

>>> print(df.to_string())
                                     binder  readoutvalue
0  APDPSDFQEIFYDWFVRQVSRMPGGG [H2CA-1-A3-IGFR]           3.8
1   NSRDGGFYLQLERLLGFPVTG [20E2B-3-D4-IGFR]           7.9
2  LGVTDGFYAALGYLIHGVGQF [20E2B-3-D11-IGFR]          12.2

Exam item: Which Ratio over Background reading was recorded for the binder GFREGNFYEWFQAQVT [E4Dα-4-H2-IR] ?
Marked response: 33.9
